# Test system: A498 renal
# Protocol Notes: NCI tumour cell line growth inhibition, 48 h
Entries and their TGI values follow.

>>> print(df.to_string())
                                   compound  measurement_label  endpoint_value
0  c1ccc(COCC23CCN(Cc4ccccc4)C(CC(OCc4ccccc4)C2)S3)cc1 (stereo not given)                TGI        > 100 µM

Sure, the documented TGI for NCC(=O)C(O)C(O)C(O)CO (stereo not given) is > 100 µM

###

# System: CAKI-1 renal
# Protocol Notes: NCI tumour cell line growth inhibition, 48 h
Recorded measurements of TGI, one per entry

Some solved entries appear below for comparison.
In [3]: df
Out[3]:
                                   compound  endpoint_value
0             CCOC(=O)CSc1nc2ccccc2c(=O)n1N        > 100 µM
1  Cc1cc(NC(=O)c2ccc(NS(=O)(=O)CCO)cc2N2CCC3(CC2)CC3)nc(N2CCC(F)(F)CC2)n1         23.2 µM
2                         CCCCCCCCCOC(=S)NC         43.1 µM
3  CO/C(=N/N1CC1C(F)(F)F)c1ccncc1 (centres undefined)        > 100 µM
4  CCCCCCCCCCCCCCCCOP(=O)(O)OP(=O)(O)OCC1OC(n2ccc(N)nc2=O)CC1O (centres undefined)        > 100 µM

The measured TGI that `COc1ccc2cc(C(=O)c3ccccc3C(=O)O)ccc2c1` showed for CAKI-1 renal is > 100 µM

Kindly note: CAKI-1 renal, `CS(=O)(=O)c1nc(N)nc2nc[nH]c12` , TGI value reported: > 100 µM

Form field TGI for item `CCc1ccc(C2=C/C(=C/c3ccc(Cl)cc3)C(=O)N2CCc2ccc(S(N)(=O)=O)cc2)cc1` on CAKI-1 renal: 12.4 µM

The compound `O=C1C=C(Nc2ccccc2)c2ncccc2C1=O` , tested on CAKI-1 renal, showed TGI of 2.7 µM

Known value: CAKI-1 renal TGI of the compound `Cc1cc(C)c2c(=O)cc(-c3ccc(Cl)cc3)[nH]c2n1` equals > 55.4 µM

###

# Test system: SR leukemia
# Protocol Notes: NCI tumour cell line growth inhibition, 48 h
Measurement Label: TGI

Consider the following illustrative entries.
Compound	TGI
CC(=O)O[C@H](C[C@H](C(C)C)N(C)C(=O)[C@@H](NC(=O)[C@H]1CCCCN1C)C(C)C)c1nc(C(=O)N[C@@H](Cc2ccccc2)C[C@H](C)C(=O)O)c(C)s1	> 25 µM
CCOC(=O)C12CCCC1(O)N(NC(=O)c1cccc(Cl)c1)C(C)=C2C(=O)OC (configuration not stated)	> 100 µM
N=c1c2c(ncn1N)Oc1c(c(-c3ccccc3)nn1-c1ccccc1)C2c1ccc(Cl)cc1 (configuration not stated)	> 100 µM
N#Cc1c(C#N)c(-c2cccc([N+](=O)[O-])c2)n(-c2ccccc2)c1N	> 100 µM

Entry `COc1cc2[nH]c(C(=O)c3cc(OC)c(OC)c(OC)c3)c(N)c2cc1C#CCO` , TGI reported as 19.8 µM

Data point: [N-]=[N+]=NC1(N=[N+]=[N-])C(=O)NN=C(c2ccccc2)C1=O (configuration not stated) ; TGI = 75.5 µM

Form field TGI, entry CON(C)C(=O)C(Cc1ccccc1)NC(=O)OC(C)(C)C (configuration not stated) : > 100 µM

Form field TGI, entry `O=S(=O)(O)c1cc(S(=O)(=O)O)c2c(N=Nc3cccc4ccccc34)c(O)ccc2c1` : > 100 µM

Data point: `O=c1c(O)c(-c2ccc(O)c(O)c2)oc2cc(O)ccc12` ; TGI = 99.8 µM

What the record says about `Cc1cc(NC(=O)c2ccc(NS(=O)(=O)CCO)cc2N2CCC3(CC2)CC3)nc(N2CCC(F)(F)CC2)n1` : TGI is 25.3 µM

Form: compound = `COC(=O)C1([C@@H]2C[C@@H](O)[C@]3(C)CC/C=C(\C)CCC[C@H](C)[C@H](O)[C@@H]2O3)CC1` ; TGI = 95.3 µM

The compound identified as CCN1C(=O)N(CC)C2C1NN=c1s/c(=C3\C(=O)N(CCC(C)C)c4ccccc43)c(=O)n12 (configuration not stated) registered its TGI at > 100 µM

For `COc1ccc(C)c2c1N[C@](C)([C@]1(C)Nc3c(OC)ccc(C)c3C1=O)C2=O` the compound record lists TGI as > 100 µM

// field: TGI; key: `CC[O-].CC[O-].[O-]c1ccccc1C=Nc1ccccc1.[O-]c1ccccc1C=Nc1ccccc1.[Ti+4]` ; value = > 100 µM

Value of measured TGI for the entry `Nc1ccccc1NC(=O)c1ccc(CSc2nc(N3CCOCC3)c3cccn3n2)cc1` : > 100 µM

TGI for `COc1cc(-c2c[nH]c3ccccc23)nc(-c2c[nH]c3ccccc23)n1` is 22.1 µM

For reference, reported TGI for CC(=O)O[C@H]1C(=O)[C@@]2(C)C(C(OC(=O)c3ccccc3)[C@]3(O)CC(OC(=O)C(O)C(NC(=O)c4ccccc4)c4ccc(F)cc4)C(C)=C1C3(C)C)[C@]1(OC(C)=O)CO[C@@H]1C[C@@H]2O (some centres not stated) stands at > 3.82 µM

Cited source for all entries: PubChem BioAssay (NCI)
